test system: SN12C renal; assay: NCI tumour cell line growth inhibition, 48 h
Overview of recorded TGI for various compounds

compound: COc1cc(CNC2=NCCC2)cc(OC)c1OC
target-of-assay: SN12C renal
unit-name: µM
inequality-operator: >
TGI: 100
--
compound: Cc1cc(S(=O)(=O)NC2=NC(c3ccccc3)c3cc(Cl)ccc3N2)c(S)cc1Cl (configuration not stated)
target-of-assay: SN12C renal
unit-name: µM
inequality-operator: >
TGI: 100
--
compound: COC(=O)NC(=Nc1ccc(Oc2ccccc2)cc1NC=O)NC(=O)OC
target-of-assay: SN12C renal
unit-name: µM
inequality-operator: >
TGI: 100
--
compound: C=C1COC(O)(C2OCOC(C3CC(=O)NC(=O)C3)C2O)C1C (configuration not stated)
target-of-assay: SN12C renal
unit-name: µM
inequality-operator: =
TGI: 0.012
--
compound: CC1=NN2C(c3ccc(C)cc3)=CSC2=NC(C)(C)C1
target-of-assay: SN12C renal
unit-name: µM
inequality-operator: >
TGI: 100
--
compound: CC(C)OP(=O)(OC(C)C)c1ccc2c(c1)OCCOCCOCCOCCO2
target-of-assay: SN12C renal
unit-name: µM
inequality-operator: >
TGI: 100
--
compound: CO/C(=C/C(=O)C(Cl)(Cl)Cl)CC/C(=C\C(=O)C(Cl)(Cl)Cl)OC
target-of-assay: SN12C renal
unit-name: µM
inequality-operator: =
TGI: 54.5
--
compound: CC1(c2cccc(N)c2)C2C(=O)NC(=O)C1C(=O)NC2=O (configuration not stated)
target-of-assay: SN12C renal
unit-name: µM
inequality-operator: =
TGI: 97.7
--
compound: O=S1(=O)NC2CCC3NS(=O)(=O)NC4CCC(N1)N4S(=O)(=O)N23 (configuration not stated)
target-of-assay: SN12C renal
unit-name: µM
inequality-operator: >
TGI: 100
--
compound: CSc1ccc(OCC2OC2O)cc1 (configuration not stated)
target-of-assay: SN12C renal
unit-name: µM
inequality-operator: >
TGI: 100
--
compound: CC(=O)Oc1c2c(c(CC=C(C)C)c3c1C(=O)C1=C[C@@H]4CC5C(C)(C)OC(C/C=C(/C)C(=O)O)(C4=O)[C@@]15O3)OC(C)(CCC=C(C)C)C=C2 (some centres not stated)
target-of-assay: SN12C renal
unit-name: µM
inequality-operator: =
TGI: 0.53
--
compound: CN(C)CC1CCC/C(=C\c2ccc(OC(=O)/C=C/c3ccccc3)cc2)C1=O (configuration not stated)
target-of-assay: SN12C renal
unit-name: µM
inequality-operator: =
TGI: 4.43
--
compound: O=C(N/C(=C\c1ccc(/C=C(\NC(=O)c2ccccc2)c2nc3cc(Cl)ccc3[nH]2)cc1)c1nc2cc(Cl)ccc2[nH]1)c1ccccc1
target-of-assay: SN12C renal
unit-name: µM
inequality-operator: >
TGI: 100
--
compound: CCCCCCCCCCC/C=C\C[C@H](O)C/C=C1/C(=O)C=C[C@@H]1C/C=C\CCCC(=O)OC
target-of-assay: SN12C renal
unit-name: µM
inequality-operator: =
TGI: 2.29
--
compound: COc1cc2oc(-c3ccc(O)cc3O)c(CC=C(C)C)c(=O)c2c(O)c1/C=C/C(C)C
target-of-assay: SN12C renal
unit-name: µM
inequality-operator: =
TGI: 3.35
--
compound: O=C1C=CC(=Nc2ccccc2)c2ccccc21
target-of-assay: SN12C renal
unit-name: µM
inequality-operator: =
TGI: 25.7
--
compound: COC(=O)C[CH2][Ge]([CH3])([CH3])[S]c1ccccc1
target-of-assay: SN12C renal
unit-name: µM
inequality-operator: =
TGI: 37.2

* * *

tested on: DU-145 prostate; experiment: NCI tumour cell line growth inhibition, 48 h
This listing pairs compounds with measured TGI.
measurement-label: TGI

compound: NCCCn1c2c(c3ccc([N+](=O)[O-])cc3c1=O)C(=O)c1cc(-c3ccccc3)ccc1-2
reading: 1.02 µM
--
compound: Clc1cc2c(nn1)Nc1ccccc1S2
reading: > 100 µM
--
compound: COc1cc(C(=O)C2C(=O)c3ccccc3C2C2(O)c3ccccc3CC2C(O)c2cc(OC)c(OC)c(OC)c2)cc(OC)c1OC (stereo not given)
reading: > 100 µM
--
compound: CCN1C(=O)/C(=C2\SC(c3ccccc3)(c3ccccc3)c3ccccc32)SC1=S
reading: > 100 µM
--
compound: S=C(N/N=C/c1ccccn1)Nc1ccc(Cl)cc1
reading: > 100 µM

* * *

We begin with a simple list: items and their reported TGI.
test system: K-562 leukemia; assay: NCI tumour cell line growth inhibition, 48 h

molecule: CC(=O)OC1CC2(C)OC(Cc3ccccc32)O1 (configuration not stated)
target-of-assay: K-562 leukemia
TGI: > 100 µM

molecule: O=C1C(=O)c2ccccc2C(O)=C1CCCc1ccc(C2CCCC2)cc1
target-of-assay: K-562 leukemia
TGI: 10.4 µM

molecule: OC(c1cc2ccccc2[nH]1)C1(c2cccnc2)SCCCS1 (configuration not stated)
target-of-assay: K-562 leukemia
TGI: > 100 µM

molecule: CN(C)CCC=C1c2ccccc2C(C)(C)c2ccccc21
target-of-assay: K-562 leukemia
TGI: 19 µM

molecule: COC(=O)C(CC(C)=O)CS(=O)(=O)CC(=O)C(=O)Nc1cccc([N+](=O)[O-])c1 (configuration not stated)
target-of-assay: K-562 leukemia
TGI: > 100 µM

molecule: O=C1CCCCC=C1C[N+](=O)[O-]
target-of-assay: K-562 leukemia
TGI: > 100 µM

molecule: CCCC(N)C(=O)c1ccccc1 (configuration not stated)
target-of-assay: K-562 leukemia
TGI: > 100 µM

molecule: C=C1CCC2C3(C)COC(c4c(OC)cccc4OC)OC3CCC2(C)C1C/C=C1/C(=O)OCC1O (configuration not stated)
target-of-assay: K-562 leukemia
TGI: 6.28 µM

molecule: O=c1cc(N2CCCC2)[nH]c(=O)n1-c1ccc(F)cc1
target-of-assay: K-562 leukemia
TGI: > 100 µM

molecule: Clc1cc2c(nn1)Nc1ccccc1S2
target-of-assay: K-562 leukemia
TGI: > 100 µM

molecule: Cc1ccc2c(c1)C1C(CO2)C(c2ccccc2)=NN1c1ccccc1 (configuration not stated)
target-of-assay: K-562 leukemia
TGI: > 100 µM

molecule: CCN1C(=O)/C(=C2\SC(c3ccccc3)(c3ccccc3)c3ccccc32)SC1=S
target-of-assay: K-562 leukemia
TGI: > 100 µM

molecule: NC(=O)C(=CNC(=S)Nc1ccc(Cl)c(Cl)c1)C(N)=O
target-of-assay: K-562 leukemia
TGI: > 100 µM

molecule: CC(=O)C=NCC(=O)O
target-of-assay: K-562 leukemia
TGI: > 100 µM

molecule: CC(=O)OCC1=C(C(=O)O)C(c2ccc3c(c2)OCO3)c2cc3c(cc2O1)OCO3 (configuration not stated)
target-of-assay: K-562 leukemia
TGI: > 100 µM

molecule: C[C@H](NC(=O)n1c2ccccc2c2ccccc21)C(=O)O
target-of-assay: K-562 leukemia
TGI: > 100 µM

molecule: O=C(OC[C@H]1C[C@H]2C(=O)CCC[C@H]2O1)c1ccccc1
target-of-assay: K-562 leukemia
TGI: > 100 µM

* * *

A collection of compounds and their measured TGI
tested on: SK-MEL-5 melanoma; assay: NCI tumour cell line growth inhibition, 48 h

compound: O=C(O)C1C2C=CC(C2)C1C(=O)O (stereo not drawn)
TGI: > 100 µM
//
compound: CN1C[C@H]2[C@@H](C1=O)[C@H](c1ccccc1)ON2C
TGI: > 100 µM
//
compound: CNc1cc2nc3cc(NC)c(C)cc3cc2cc1C
TGI: 14 µM

* * *

system: A549 NSCLC; experiment: NCI tumour cell line growth inhibition, 48 h
Listed here: items and their measured TGI.

molecule: CC(=O)[CH-]C(=O)c1ccccc1.CC(=O)[CH-]C(=O)c1ccccc1.CC1(C)OCC(C2OC3OC(C)(C)OC3C2[O-])O1.CC1(C)OCC(C2OC3OC(C)(C)OC3C2[O-])O1.[Ti+4] (stereo unspecified)
TGI: 38 µM

molecule: COc1ccc(-c2nc(Nc3ccc(-c4nc5ccccc5[nH]4)cc3)nc(N3CCOCC3)n2)cc1
TGI: > 100 µM

molecule: Cc1c(-c2ccccc2)c(C#N)c2nnn(C3CCCCC3)c(=O)n12
TGI: > 100 µM

molecule: CC(=O)c1ccc(Nc2nc(Nc3ccc(F)cc3)nc(Nc3ccc(F)cc3)n2)cc1
TGI: 32.5 µM

molecule: CO/C(=C/C(=O)C(Cl)(Cl)Cl)CC/C(=C\C(=O)C(Cl)(Cl)Cl)OC
TGI: > 100 µM

molecule: CC(C)(CCN=C(N)Nc1ccccn1)c1ccc(C(F)(F)F)cc1
TGI: 31.6 µM

* * *

tested on: NCI-H460 lung; experiment: NCI tumour cell line growth inhibition, 48 h
Listed here are compounds together with their documented TGI.

compound: CC(C)OP(=O)(OC(C)C)c1ccc2c(c1)OCCOCCOCCOCCO2
target-of-assay: NCI-H460 lung
TGI: > 100 µM
//
compound: COC(=O)c1ccc2c(c1)C(=O)c1c-2n(C)c(=O)c2cc(OC)c(OC)cc12
target-of-assay: NCI-H460 lung
TGI: > 50 µM
//
compound: Cc1ccc2c(c1)C1C(CO2)C(c2ccccc2)=NN1c1ccccc1 (configuration not stated)
target-of-assay: NCI-H460 lung
TGI: > 100 µM
//
compound: O=C(NNc1ccc(F)cc1)C1CCC(CNS(=O)(=O)c2ccc(Cl)c(Cl)c2)CC1 (configuration not stated)
target-of-assay: NCI-H460 lung
TGI: > 50 µM
//
compound: COc1ccc2c(Cc3c4ccccc4cc4ccccc34)cncc2c1O
target-of-assay: NCI-H460 lung
TGI: 3.94 µM
//
compound: CC(=O)[CH-]C(=O)c1ccccc1.CC(=O)[CH-]C(=O)c1ccccc1.CC1(C)OCC(C2OC3OC(C)(C)OC3C2[O-])O1.CC1(C)OCC(C2OC3OC(C)(C)OC3C2[O-])O1.[Ti+4] (configuration not stated)
target-of-assay: NCI-H460 lung
TGI: 28.4 µM
//
compound: NC(=S)N/N=C/c1ccc(N)cn1
target-of-assay: NCI-H460 lung
TGI: > 10 µM
//
compound: CSc1ccc(OCC2OC2O)cc1 (configuration not stated)
target-of-assay: NCI-H460 lung
TGI: > 100 µM
//
compound: O=C(Nc1nc(C23CC4CC(CC(C4)C2)C3)cs1)c1cc2cc(Cl)ccc2oc1=O
target-of-assay: NCI-H460 lung
TGI: > 100 µM
//
compound: CC(Oc1ccc(OCC2CCCCC2)cc1)C(=O)NCCO (configuration not stated)
target-of-assay: NCI-H460 lung
TGI: > 100 µM
//
compound: Cc1ccc(C2SCC(=O)N2c2ccc(-c3ccc(-n4c(-c5ccccc5)nc5ccccc5c4=O)cc3)cc2)cc1 (configuration not stated)
target-of-assay: NCI-H460 lung
TGI: > 100 µM
//
compound: O=C(OC[C@H]1C[C@H]2C(=O)CCC[C@H]2O1)c1ccccc1
target-of-assay: NCI-H460 lung
TGI: > 100 µM
//
compound: Fc1ccc(-c2nn3c(-c4cc(C(F)(F)F)cc(C(F)(F)F)c4)nnc3s2)cc1
target-of-assay: NCI-H460 lung
TGI: > 50 µM
//
compound: CC(C)(C)OC(=O)NCCC(=O)NC1(c2cc3ccccc3s2)CCCCC1
target-of-assay: NCI-H460 lung
TGI: 34.3 µM
//
compound: COC(=O)C(CC(C)=O)CS(=O)(=O)CC(=O)C(=O)Nc1cccc([N+](=O)[O-])c1 (configuration not stated)
target-of-assay: NCI-H460 lung
TGI: > 100 µM
//
compound: COc1cc(/C=C2\Oc3cc(OCCCN4CCCC4)ccc3C2=O)cc(OC)c1
target-of-assay: NCI-H460 lung
TGI: 12.3 µM
//
compound: N#CCOc1ccc(/C=C/C(=O)c2ccc(Cl)cc2)cc1
target-of-assay: NCI-H460 lung
TGI: 64.2 µM
//
compound: C=CCc1cc(C=C(C#N)C#N)cc(OC)c1O
target-of-assay: NCI-H460 lung
TGI: > 100 µM
//
compound: NC1(C(=O)O)CCc2ccc(N(CCCl)CCCl)cc2C1 (configuration not stated)
target-of-assay: NCI-H460 lung
TGI: > 100 µM
//
compound: CCCCCc1cc[n+](CC(=O)c2ccc([N+](=O)[O-])cc2)cc1
target-of-assay: NCI-H460 lung
TGI: 11.6 µM
//
compound: Cc1ccc(C2N=C(N)NC3=C2CCOc2c3ccc3ccccc23)cc1 (configuration not stated)
target-of-assay: NCI-H460 lung
TGI: > 100 µM
//
compound: CC[C@@H](C(=O)[C@H](C)[C@H](O)[C@@H](C)[C@H]1O[C@H]([C@@H](CC)C(=O)O)CC[C@H]1C)C1O[C@]2(C=C[C@@H](O)[C@]3(CC[C@@](C)([C@H]4CC[C@](O)(CC)[C@H](C)O4)O3)O2)[C@H](C)C[C@@H]1C (some centres not stated)
target-of-assay: NCI-H460 lung
TGI: 10.3 µM

All values here come from PubChem BioAssay (NCI).
